Just for reference, the kinase profiling compilation of Christmann-Franck et al. (2016) is where these values come from.

The following compounds are listed with their measured kinase still bound, per cent of control values.
target-system: MARK4 (human)
method-description: KINOMEscan competition binding
condition-set: compound 10.0 µM
Please reply with the bare figure in % and do not write the unit itself.

Query: Query the reported kinase still bound, per cent of control for MARK4 (human); item: N#Cc1c(NC(=O)c2cccc3ccccc23)sc2c1CCCC2
Result: 97

---

Tested on: EGFR (human), P00533 [746-750 del]
Sequence (P00533 whole entry, looked up, stated change not applied): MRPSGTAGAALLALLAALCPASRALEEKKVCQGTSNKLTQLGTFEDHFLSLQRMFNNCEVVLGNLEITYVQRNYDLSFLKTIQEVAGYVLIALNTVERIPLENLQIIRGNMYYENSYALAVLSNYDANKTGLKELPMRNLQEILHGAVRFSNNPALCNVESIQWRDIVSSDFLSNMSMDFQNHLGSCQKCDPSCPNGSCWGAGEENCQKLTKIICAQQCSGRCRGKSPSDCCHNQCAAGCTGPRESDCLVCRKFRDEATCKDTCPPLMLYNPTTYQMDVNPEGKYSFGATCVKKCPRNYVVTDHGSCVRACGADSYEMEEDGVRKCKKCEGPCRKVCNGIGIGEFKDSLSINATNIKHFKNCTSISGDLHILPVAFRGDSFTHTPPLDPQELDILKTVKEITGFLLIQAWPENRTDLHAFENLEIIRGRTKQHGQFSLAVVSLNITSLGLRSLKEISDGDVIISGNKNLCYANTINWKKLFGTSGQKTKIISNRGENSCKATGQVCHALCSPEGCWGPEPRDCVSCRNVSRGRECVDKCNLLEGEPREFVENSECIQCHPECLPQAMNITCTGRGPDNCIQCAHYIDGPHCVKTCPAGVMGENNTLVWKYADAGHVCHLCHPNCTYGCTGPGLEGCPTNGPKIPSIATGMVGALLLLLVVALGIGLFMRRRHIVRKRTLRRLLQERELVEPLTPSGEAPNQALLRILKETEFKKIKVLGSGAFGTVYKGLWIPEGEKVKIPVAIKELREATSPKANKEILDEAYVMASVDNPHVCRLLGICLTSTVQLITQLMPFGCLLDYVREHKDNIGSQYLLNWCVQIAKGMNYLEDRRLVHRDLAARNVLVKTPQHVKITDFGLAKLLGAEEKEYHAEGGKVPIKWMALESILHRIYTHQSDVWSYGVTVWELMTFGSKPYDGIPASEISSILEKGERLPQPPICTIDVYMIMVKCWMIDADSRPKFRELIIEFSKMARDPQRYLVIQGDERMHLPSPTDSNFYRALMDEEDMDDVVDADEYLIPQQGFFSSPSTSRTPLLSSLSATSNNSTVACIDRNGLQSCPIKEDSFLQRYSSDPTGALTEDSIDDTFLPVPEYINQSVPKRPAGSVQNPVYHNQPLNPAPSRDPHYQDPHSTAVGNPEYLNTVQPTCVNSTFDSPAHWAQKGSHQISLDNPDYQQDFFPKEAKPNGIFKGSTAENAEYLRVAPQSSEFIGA
method-description: KINOMEscan competition binding
condition-set: compound 10.0 µM
Let's look at some compounds and their measured kinase still bound, per cent of control.
Kindly provide the numeric value in % only, without the unit symbol.

Use these answered entries as a reference point.
1) CS(=O)(=O)N1CCN(Cc2cc3nc(-c4cccc5[nH]ncc45)nc(N4CCOCC4)c3s2)CC1 : 100
2) CN(C)C/C=C/C(=O)Nc1cccc(Nc2ncc3c(n2)N(C)c2ccccc2C(=O)N3C)c1 : 90
3) C[C@@H](Oc1cc(-n2cnc3ccc(CN4CCN(C)CC4)cc32)sc1C(N)=O)c1ccccc1C(F)(F)F : 100
4) Cc1ccc(C(=O)Nc2cccc(C(F)(F)F)c2)cc1Nc1cncc(C(N)=O)c1 : 100
5) CCN(CC)CCCCNc1ncc2c(n1)N(C)C(=O)N(c1c(Cl)c(OC)cc(OC)c1Cl)C2 : 100

Query: Using the record for COc1cc(C)c(Sc2cnc(NC(=O)c3ccc(CNC(C)C(C)C)cc3)s2)cc1C(=O)N1CCN(C(C)=O)CC1 (stereo not drawn) , report its kinase still bound, per cent of control.
Result: 100

Query: Return reported kinase still bound, per cent of control; argument: O=c1[nH]c2ccccc2n1C1CCN(Cc2ccc(-c3nc4cc5[nH]cnc5cc4nc3-c3ccccc3)cc2)CC1
Result: 80

Query: # get_value(readout='kinase still bound, per cent of control', item= Nc1ccc(-c2ccc3ncc4ccc(=O)n(-c5cccc(C(F)(F)F)c5)c4c3c2)cn1 )
Result: 92

---

target-system: AKT2 (human) (UniProt P31751)
Sequence (P31751 whole entry, looked up): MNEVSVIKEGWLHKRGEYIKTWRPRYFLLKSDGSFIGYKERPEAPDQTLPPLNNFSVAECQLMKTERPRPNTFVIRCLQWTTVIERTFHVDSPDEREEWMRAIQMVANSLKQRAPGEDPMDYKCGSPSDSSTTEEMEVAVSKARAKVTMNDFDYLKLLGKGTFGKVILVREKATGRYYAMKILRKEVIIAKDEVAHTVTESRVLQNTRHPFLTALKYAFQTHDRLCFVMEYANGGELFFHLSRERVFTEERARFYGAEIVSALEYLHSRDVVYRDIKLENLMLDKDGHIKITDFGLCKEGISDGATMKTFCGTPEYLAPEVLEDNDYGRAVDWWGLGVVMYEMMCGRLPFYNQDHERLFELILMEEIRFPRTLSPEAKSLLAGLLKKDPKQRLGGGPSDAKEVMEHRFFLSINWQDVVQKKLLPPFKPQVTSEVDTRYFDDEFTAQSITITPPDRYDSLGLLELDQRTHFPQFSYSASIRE
method-description: KINOMEscan competition binding
condition-set: compound 10.0 µM
# kinase still bound, per cent of control per entry
The reply should be a number in %, with the unit left off.

Below: 5 compounds and their reported kinase still bound, per cent of control.
1) CN(C)C/C=C/C(=O)Nc1cccc(Nc2ncc3c(n2)N(C)c2ccccc2C(=O)N3C)c1 : 99
2) Cc1ccc(C(=O)Nc2cccc(C(F)(F)F)c2)cc1Nc1cncc(C(N)=O)c1 : 100
3) CCC(=O)N1CCN(c2ccc(-n3c(=O)ccc4cnc5ccc(-c6cnc7ccccc7c6)cc5c43)cc2C(F)(F)F)CC1 : 100
4) O=C(NOC[C@H](O)CO)c1ccc(F)c(F)c1Nc1ccc(I)cc1F : 100
5) CCCS(=O)(=O)Nc1ccc(F)c(C(=O)c2c[nH]c3ncc(-c4ccc(Cl)cc4)cc23)c1F : 76

Query: Quick one: kinase still bound, per cent of control of COc1cc(C(=O)NC2CCN(C)CC2)ccc1Nc1ncc2c(n1)N(C1CCCC1)C(C)CC(=O)N2C (stereo unspecified) ?
Result: 100

Query: // query kinase still bound, per cent of control value for entry O=C(O)c1ccc(Nc2ncc3c(n2)-c2ccc(Cl)cc2C(c2c(F)cccc2F)=NC3)cc1
Result: 100

Query: Fill blank: measured kinase still bound, per cent of control of the compound COc1cc(C(=O)NC2CCN(C)CC2)ccc1Nc1ncc2c(n1)N(C1CCCC1)CCC(=O)N2C(C)C is ____.
Result: 100

Query: Which kinase still bound, per cent of control is listed for Cn1c(=O)n(-c2ccc(C(C)(C)C#N)cc2)c2c3cc(-c4cnc5ccccc5c4)ccc3ncc21 ?
Result: 100

Query: What value of kinase still bound, per cent of control has been reported for the following compound? N#Cc1c(NC(=O)c2cccc3ccccc23)sc2c1CCCC2
Result: 100
